Data provenance is patent US20230220010A1.

- System: Lassa pseudovirus (LASVpv)
- condition set: 1 h
pEC50: −log10 of the molar value. Ends that are not written are not given here.
measurement kind: pEC50

[[record]]
substance = "RRGWLLLRLLRLLLRLLWGRR-NH2 [AHR]"
result = "> 5.00"


====

- System: Lassa pseudovirus (LASVpv)
- condition set: 72 h
pEC50: −log10 of the molar value. Ends that are not written are not given here.
Here, each record is paired with measured pEC50 data.
measurement kind: pEC50

[[record]]
substance = "RRGWRLNLNLYYGRR-NH2 [*RNNY*, RRGWRLNLNLYYGRR]"
result_qualifier = "="
quantitative_result = 5.68

[[record]]
substance = "RRGFSLKLLLSYRGWALLRLGYGRR-NH2 [IT1-a]"
result_qualifier = "="
quantitative_result = 5.80

[[record]]
substance = "RRGFSLKLKLLYRGWALALRLGYGRR-NH2 [IT1-e]"
result_qualifier = "="
quantitative_result = 5.92

[[record]]
substance = "RRGWTLNLTLNYGRR-NH2 [*TNTN*, RRGWTLNLTLNYGRR]"
result_qualifier = "="
quantitative_result = 5.96

[[record]]
substance = "RRRRRRRRRWC-NH2 [Arg9, RRRRRRRRRWC, reference compound]"
result_qualifier = "<"
quantitative_result = 4.00

[[record]]
substance = "RRGFSLKLRLLYRGWGLALRLGYGRR-NH2 [IT1-d]"
result_qualifier = "="
quantitative_result = 5.89

[[record]]
substance = "GIGAVLKGLATGLPAGISWIKQQAQL-NH2 [MelN4, reference compound]"
result_qualifier = "<"
quantitative_result = 4.00

[[record]]
substance = "RRGWVLDLVLYYGRR-NH2 [*VDVY*, RRGWVLDLVLYYGRR]"
result_qualifier = "="
quantitative_result = 5.30

[[record]]
substance = "WALRLYLGVY-NH2 [ARYV, WALRLYLGVY]"
result_qualifier = "="
quantitative_result = 5.10

[[record]]
substance = "RRGWGLRLVLYYGRR-NH2 [*GRVY*, RRGWGLRLVLYYGRR]"
result_qualifier = "="
quantitative_result = 5.68

[[record]]
substance = "RRGFSLKLALLKDGWLLLRLGYGRR-NH2 [IT1-b]"
result_qualifier = "="
quantitative_result = 5.85

[[record]]
substance = "RRGWALRLNLYYGRR-NH2 [*ARNY*, RRGWALRLNLYYGRR]"
result_qualifier = "="
quantitative_result = 5.66

[[record]]
substance = "RRGWNLALTLTYGRR-NH2 [*NATT*, RRGWNLALTLTYGRR]"
result_qualifier = "="
quantitative_result = 5.92

[[record]]
substance = "RRGWALRLVLAY-NH2 [*ARVA, RRGWALRLVLAY]"
result_qualifier = "="
quantitative_result = 5.21

[[record]]
substance = "RRGFSLKLALLKDGWLLLLRLGYGRR-NH2 [IT1-f]"
result_qualifier = "="
quantitative_result = 5.96

